Test system: MCF7
assay method text: NCI tumour cell line growth inhibition, 48 h
Activity calls are given as the source filed them. Rule as the data show it: active = GI50 up to about 1.1 µM and inactive = higher.
Outcome codes: TRUE = active, FALSE = inactive

> print(dat)
                                    compound  system.tested  assigned.category
 1  CCOP(=O)(OCC)C(C)(CC)NC (stereo not drawn)           MCF7              FALSE
 2  CC12CCC(=O)[C@@]1(C)CCCC2=O (stereo partly drawn)           MCF7              FALSE
 3  CCN(CC)/C(Sc1ccccc1)=C(\C(Cl)=C(Cl)Cl)[N+](=O)[O-]           MCF7              FALSE
 4         CSc1ccccc1P(c1ccccc1SC)c1ccccc1SC           MCF7              FALSE
 5       O=C(Oc1cccnc1)c1cc2cc(CCl)ccc2oc1=O           MCF7              FALSE
 6             N=C(N)N/N=C/c1cc(Cl)cc(Cl)c1O           MCF7              FALSE
 7  O=C1c2ccccc2-c2c1c(-c1ccc(O)cc1O)nc1ccc3ccccc3c21           MCF7              FALSE
 8      Nc1[nH]c(=O)[nH]c(=O)c1Cc1cccc(Cl)c1           MCF7              FALSE
 9             COc1ccccc1/C=C/c1ccnc2ccccc12           MCF7              FALSE
10                    Cc1cc2c3c(c1)CCCN3CCC2           MCF7              FALSE
11  CC(=O)OC1CC2CCC1(C)C2(C)C (stereo not drawn)           MCF7              FALSE
12  O=C(/C=C1\Nc2ncccc2N=C1CC(=O)c1ccccc1)c1ccccc1           MCF7              FALSE
13  CC1(C)CC[C@]2(C)[C@@H](O)C[C@]3(C)C(=CC[C@@H]4[C@@]5(C)CC[C@H](O)C(C)(C)[C@@H]5CC[C@]43C)[C@@H]2C1           MCF7              FALSE
14  NCC(O)CNC(=O)c1ccc(-c2ccc(-c3ccc(C(=O)NCC(O)CN)cc3)o2)cc1 (stereo not drawn)           MCF7              FALSE
15  O=[N+]([O-])c1ccc(O)c(/C=N/NC(=S)N2CCCCC2)c1           MCF7              FALSE
16  CCCCOc1ccc2c(c1)CC[C@@H]1[C@@H]2CC[C@]2(C)C(=O)N(CCCC)C(=O)C[C@@H]12           MCF7              FALSE
17  COc1ccc(N2C(=O)C3c4[nH]c5ccc(F)cc5c4C4CCC(C(C)(C)C)CC4C3C2=O)cc1 (stereo not drawn)           MCF7              FALSE
18  O=NC1C(Cl)C2CC1C1C(Br)C(Br)CC21 (stereo not drawn)           MCF7              FALSE
19  COc1ccc2/c(=C/c3ccc(N(C)C)cc3)c3cc(-c4ccccc4)[n+](C)n3c2c1           MCF7               TRUE
20  O=C(O)C(Cc1c[nH]c2ccccc12)C(=O)NO (stereo not drawn)           MCF7              FALSE
21  CC(=O)c1ccccc1NCC(=O)Nn1cnc2ccc(S(=O)(=O)Nc3ccccc3C(C)=O)cc2c1=O           MCF7              FALSE
22  Cc1cn(CCOCCOC(=O)NC(CCCNC(N)=O)C(=O)O)c(=O)[nH]c1=O (stereo not drawn)           MCF7              FALSE
23      COC(C)(C)[C@@H]1CCCN1C1=C(C)C(=O)OC1           MCF7              FALSE
24       S=C(Nc1ccc2c(c1)oc1ccccc12)c1cccnc1           MCF7              FALSE
25  CC(=O)O[C@H]1C#C/C=C\C#CC[C@@H]2C(=O)N(C(=O)OC(C)(C)C)[C@@H]12           MCF7              FALSE
26  Cc1ccc(C2SCC(=O)N2c2ccc(-n3c(-c4ccccc4)nc4ccccc4c3=O)cc2)cc1 (stereo not drawn)           MCF7              FALSE
27  O=S1(=O)C[C@H](NCc2ccccc2)[C@H](NCc2ccccc2)C1           MCF7              FALSE
28              CCc1nc(N)c2nc(-c3cccs3)oc2n1           MCF7              FALSE

Where do the numbers come from? From ChEMBL document CHEMBL1201862.
